The values you see were collected from the supplement of paper PMC6555819.

Test system: THRa:RXRa (NR concentration 90 nM, RXRa partner concentration 90 nM)
measurement protocol: PBM binding z-score (relative to random genomic background probes); higher = stronger binding; sequences stand for … in GC…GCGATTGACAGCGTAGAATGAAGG
PBM binding z-score values for the sequences below.
readout name: PBM binding z-score

# sequence chain, target desc, value measured
data = [
    ("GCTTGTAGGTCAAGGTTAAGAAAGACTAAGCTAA", "THRa:RXRa (NR concentration 90 nM, RXRa partner concentration 90 nM)", 2.91),
    ("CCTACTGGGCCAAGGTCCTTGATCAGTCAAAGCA", "THRa:RXRa (NR concentration 90 nM, RXRa partner concentration 90 nM)", -0.0193),
    ("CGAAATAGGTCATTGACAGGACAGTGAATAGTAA", "THRa:RXRa (NR concentration 90 nM, RXRa partner concentration 90 nM)", 3.01),
    ("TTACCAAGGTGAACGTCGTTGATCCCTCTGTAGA", "THRa:RXRa (NR concentration 90 nM, RXRa partner concentration 90 nM)", 2.32),
    ("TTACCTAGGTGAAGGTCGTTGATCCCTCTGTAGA", "THRa:RXRa (NR concentration 90 nM, RXRa partner concentration 90 nM)", 1.9),
    ("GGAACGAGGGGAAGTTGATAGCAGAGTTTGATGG", "THRa:RXRa (NR concentration 90 nM, RXRa partner concentration 90 nM)", -0.105),
    ("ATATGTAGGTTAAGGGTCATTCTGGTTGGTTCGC", "THRa:RXRa (NR concentration 90 nM, RXRa partner concentration 90 nM)", 3.23),
    ("CGTCCAAGTTCAATGCTAGGTCAGTGAAAGCATT", "THRa:RXRa (NR concentration 90 nM, RXRa partner concentration 90 nM)", 3.53),
    ("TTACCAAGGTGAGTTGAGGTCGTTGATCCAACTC", "THRa:RXRa (NR concentration 90 nM, RXRa partner concentration 90 nM)", 4.72),
    ("CGTCAAAGTTCAAGGTAACGTGACAGAAAGCAGC", "THRa:RXRa (NR concentration 90 nM, RXRa partner concentration 90 nM)", 2.99),
    ("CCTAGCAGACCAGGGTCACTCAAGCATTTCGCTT", "THRa:RXRa (NR concentration 90 nM, RXRa partner concentration 90 nM)", 2.75),
    ("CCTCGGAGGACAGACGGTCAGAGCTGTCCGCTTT", "THRa:RXRa (NR concentration 90 nM, RXRa partner concentration 90 nM)", -0.0863),
]

---

Tested on: THRa:RXRa (NR concentration 90 nM, RXRa partner concentration 90 nM)
measurement protocol: PBM binding z-score (relative to random genomic background probes); higher = stronger binding; sequences stand for … in GC…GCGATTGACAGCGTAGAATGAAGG
The threshold is inclusive: PBM binding z-score of exactly 3 counts as class 1; values below receive class 0.

# sequence chain, assigned class
rows = [
    ("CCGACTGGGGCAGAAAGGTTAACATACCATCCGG", "class 0"),
    ("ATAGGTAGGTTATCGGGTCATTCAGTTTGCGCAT", "class 1"),
    ("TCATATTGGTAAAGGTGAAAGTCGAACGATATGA", "class 0"),
    ("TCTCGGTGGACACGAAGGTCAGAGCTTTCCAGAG", "class 0"),
    ("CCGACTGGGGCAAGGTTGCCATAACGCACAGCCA", "class 0"),
    ("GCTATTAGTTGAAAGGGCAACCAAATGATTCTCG", "class 0"),
    ("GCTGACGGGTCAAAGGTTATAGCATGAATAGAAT", "class 1"),
    ("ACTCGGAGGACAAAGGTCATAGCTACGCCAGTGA", "class 1"),
    ("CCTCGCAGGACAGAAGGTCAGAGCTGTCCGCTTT", "class 0"),
    ("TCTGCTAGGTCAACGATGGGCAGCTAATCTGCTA", "class 0"),
    ("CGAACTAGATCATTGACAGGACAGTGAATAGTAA", "class 0"),
    ("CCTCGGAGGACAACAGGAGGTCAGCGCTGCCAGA", "class 1"),
    ("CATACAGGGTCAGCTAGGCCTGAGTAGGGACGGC", "class 0"),
    ("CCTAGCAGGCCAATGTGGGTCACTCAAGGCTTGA", "class 0"),
    ("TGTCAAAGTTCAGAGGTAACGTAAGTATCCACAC", "class 0"),
    ("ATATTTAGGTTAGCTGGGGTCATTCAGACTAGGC", "class 1"),
    ("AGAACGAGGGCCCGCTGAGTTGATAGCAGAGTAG", "class 0"),
    ("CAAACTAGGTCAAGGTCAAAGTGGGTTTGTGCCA", "class 1"),
    ("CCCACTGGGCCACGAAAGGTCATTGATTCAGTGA", "class 1"),
    ("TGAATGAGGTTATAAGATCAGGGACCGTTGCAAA", "class 0"),
    ("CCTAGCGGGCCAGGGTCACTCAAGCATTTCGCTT", "class 0"),
    ("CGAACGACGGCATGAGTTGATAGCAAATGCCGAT", "class 0"),
    ("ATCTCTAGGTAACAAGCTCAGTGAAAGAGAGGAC", "class 0"),
    ("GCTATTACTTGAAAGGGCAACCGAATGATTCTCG", "class 0"),
]

---

System: PPARg:RXRa DBDmut IVT, anti-RXR (DBD mutation: RXRa K156A/R161A, NR concentration 270 nM, RXRa partner concentration 90 nM)
measurement protocol: PBM binding z-score (relative to random genomic background probes); higher = stronger binding; sequences stand for … in GC…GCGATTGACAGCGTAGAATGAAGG

# sequence chain, PBM binding z-score
data = [
    ("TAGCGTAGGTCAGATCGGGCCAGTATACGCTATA", -0.503),
    ("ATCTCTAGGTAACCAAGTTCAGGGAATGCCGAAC", 3.23),
    ("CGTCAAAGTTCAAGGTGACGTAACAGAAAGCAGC", 0.983),
    ("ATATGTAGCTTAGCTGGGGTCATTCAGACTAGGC", 0.33),
    ("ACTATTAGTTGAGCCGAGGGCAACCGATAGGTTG", -0.387),
    ("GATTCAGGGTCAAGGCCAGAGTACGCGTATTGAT", 3.79),
]

---

System: PPARg:RXRa 90nM:30nM, anti-RXR (NR concentration 90 nM, RXRa partner concentration 30 nM)
measurement protocol: PBM binding z-score (relative to random genomic background probes); higher = stronger binding; sequences stand for … in GC…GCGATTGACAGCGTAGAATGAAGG
PBM binding z-score values for the sequences below.

# sequence chain, target desc, PBM binding z-score
rows = [
    ("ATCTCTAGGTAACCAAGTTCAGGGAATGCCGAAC", "PPARg:RXRa 90nM:30nM, anti-RXR (NR concentration 90 nM, RXRa partner concentration 30 nM)", 0.596),
    ("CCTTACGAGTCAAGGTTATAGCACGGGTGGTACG", "PPARg:RXRa 90nM:30nM, anti-RXR (NR concentration 90 nM, RXRa partner concentration 30 nM)", -0.0269),
    ("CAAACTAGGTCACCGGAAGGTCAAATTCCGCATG", "PPARg:RXRa 90nM:30nM, anti-RXR (NR concentration 90 nM, RXRa partner concentration 30 nM)", 7.81),
    ("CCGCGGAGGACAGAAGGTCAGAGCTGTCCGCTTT", "PPARg:RXRa 90nM:30nM, anti-RXR (NR concentration 90 nM, RXRa partner concentration 30 nM)", 0.289),
    ("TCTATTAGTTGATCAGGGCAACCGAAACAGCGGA", "PPARg:RXRa 90nM:30nM, anti-RXR (NR concentration 90 nM, RXRa partner concentration 30 nM)", 2.67),
    ("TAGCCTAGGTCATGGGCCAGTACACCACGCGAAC", "PPARg:RXRa 90nM:30nM, anti-RXR (NR concentration 90 nM, RXRa partner concentration 30 nM)", 2.8),
    ("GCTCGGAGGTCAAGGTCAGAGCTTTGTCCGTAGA", "PPARg:RXRa 90nM:30nM, anti-RXR (NR concentration 90 nM, RXRa partner concentration 30 nM)", 5.23),
    ("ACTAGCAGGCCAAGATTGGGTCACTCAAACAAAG", "PPARg:RXRa 90nM:30nM, anti-RXR (NR concentration 90 nM, RXRa partner concentration 30 nM)", -0.361),
    ("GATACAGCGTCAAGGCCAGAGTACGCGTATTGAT", "PPARg:RXRa 90nM:30nM, anti-RXR (NR concentration 90 nM, RXRa partner concentration 30 nM)", -0.649),
    ("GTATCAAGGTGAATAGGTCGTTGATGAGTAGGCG", "PPARg:RXRa 90nM:30nM, anti-RXR (NR concentration 90 nM, RXRa partner concentration 30 nM)", 2.08),
    ("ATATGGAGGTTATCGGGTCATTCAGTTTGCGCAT", "PPARg:RXRa 90nM:30nM, anti-RXR (NR concentration 90 nM, RXRa partner concentration 30 nM)", 3.73),
    ("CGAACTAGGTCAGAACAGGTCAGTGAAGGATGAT", "PPARg:RXRa 90nM:30nM, anti-RXR (NR concentration 90 nM, RXRa partner concentration 30 nM)", 4.11),
]
